Values were extracted from patent US20230416258A1.

# Test system: GABA-activated Cl− current (GABAA receptor) in HEK 293T cells
# test_description: Effect of drugs on GABA-activated current in cells by cell patch clamp
# Assay type: cell-based
# test_conditions: −60 mV, corresponding concentration 20 μM
metric_name: Enhancement percentage Emax for 2 μM GABA current (within 3-30 μM)

- smiles_text: "COC(=O)CC[C@@H]1N=C(c2ccccc2F)c2cc(Cl)ccc2-n2c1n[nH]c2=S"
  test_system: "GABA-activated Cl− current (GABAA receptor) in HEK 293T cells"
  observed_measurement: "234% (20 μM)"
- smiles_text: "COC(=O)CC[C@@H]1N=C(c2ccccc2Cl)c2cc([N+](=O)[O-])ccc2-n2c(SCCN3CCOCC3)nnc21"
  test_system: "GABA-activated Cl− current (GABAA receptor) in HEK 293T cells"
  observed_measurement: "287% (20 μM)"
- smiles_text: "COC(=O)CC[C@@H]1N=C(c2ccccc2Cl)c2cc(Cl)ccc2-n2c(SC)nnc21"
  test_system: "GABA-activated Cl− current (GABAA receptor) in HEK 293T cells"
  observed_measurement: "278% (20 μM)"
- smiles_text: "COC(=O)CC[C@@H]1N=C(c2ccccc2Cl)c2cc(Cl)ccc2-n2c(SCCN3CCCC3)nnc21"
  test_system: "GABA-activated Cl− current (GABAA receptor) in HEK 293T cells"
  observed_measurement: "278% (20 μM)"
- smiles_text: "COC(=O)CC[C@@H]1N=C(c2ccccc2Cl)c2cc([N+](=O)[O-])ccc2-n2c(SC)nnc21"
  test_system: "GABA-activated Cl− current (GABAA receptor) in HEK 293T cells"
  observed_measurement: "242% (20 μM)"
- smiles_text: "COC(=O)CC[C@@H]1N=C(c2ccccc2F)c2cc(Br)ccc2-n2c1n[nH]c2=S"
  test_system: "GABA-activated Cl− current (GABAA receptor) in HEK 293T cells"
  observed_measurement: "238% (20 μM)"
- smiles_text: "COC(=O)CC[C@@H]1N=C(c2ccccc2)c2cc(Cl)ccc2-n2c(SC)nnc21"
  test_system: "GABA-activated Cl− current (GABAA receptor) in HEK 293T cells"
  observed_measurement: "291% (20 μM)"
